The values you see were collected from ChEMBL document CHEMBL1136532.

Kindly state pIC50 for each of the entries shown.
experimental-target: GABA-A receptor; anion channel
measurement-description: Inhibition of [35S]TBPS binding to GABA-A receptor rat whole brain membranes
Numbers only, as −log10 of the molar value.

INSERT INTO assay_data (compound, assay_value) VALUES
  ('COCC(C(=O)Oc1c(OC)cccc1OC)N1CCCOCC1 (single isomer, unassigned; form 2)', 4.01),
  ('CC[C@H](C(=O)Oc1c(OC)cc(C)cc1OC)N(CCOC)CCOC [ORG-24447]', 4.53),
  ('COCCC(C(=O)Oc1c(OC)cccc1OC)N1CCCOCC1 (single isomer, unassigned; form 2)', 4.49);

For each entry beneath this line, provide reported pIC50.
1. COCC(C(=O)Oc1c(OC)cccc1OC)N1CCCOCC1 (stereo in doubt; 26)
2. CCOCCC(C(=O)Oc1c(OC)cccc1OC)N1CCCOCC1 (racemic)
3. COCCC(C(=O)Oc1c(OC)cccc1OC)N1CCCOCC1 (racemic)
4. COCC(C(=O)Oc1c(OC)cccc1OC)N1CCCOCC1 (single isomer, unassigned; form 1)

(A)
1: 4.46; 2: 4.46; 3: 4.16; 4: 4.45
